Reference source for all entries: the COVID Moonshot data (paper PMC7615835)

measured on: SARS-CoV-2 Main Protease (SARS-CoV-2)
The label is label 1 for IC50 below 0.8 µM and label 0 for IC50 equal to or exceeding 0.8 µM.

Is IC50 of O=C(Cc1cc(Cl)cc(Nc2ccccc2Sc2ccccc2)c1)Nc1cncc2ccccc12 strictly below 0.8 µM?
label 0

Is IC50 of Cc1nn(C)c2[nH]nc(NC(=O)Cc3cccc(Cl)c3)c12 strictly below 0.8 µM?
label 0

Is IC50 of O=C(Cc1cc(Cl)ccc1Cl)Nc1cncc2ccccc12 strictly below 0.8 µM?
label 0

Is IC50 of CCc1ccc2c(c1)C(=O)C(=O)N2CC(=O)O strictly below 0.8 µM?
label 0

Is IC50 of C=CC(=O)NCc1ccc(C(=O)N[C@H](CO)c2ccc(Br)c(F)c2)cc1 (stereo in doubt) strictly below 0.8 µM?
label 0

Is IC50 of C=CS(=O)(=O)N1CCN(S(=O)(=O)c2ccccc2)CC1 strictly below 0.8 µM?
label 0

Is IC50 of O=C(NCCc1cccc(F)c1)C(c1cccnc1)N(C(=O)c1ccco1)c1cccc(CSC2CCOCC2)c1 (stereo not given) strictly below 0.8 µM?
label 0

Is IC50 of CC(C)c1cc(N(C(=O)c2ccco2)C(C(=O)NCCc2cccc(F)c2)c2cccnc2)ccc1C(F)(F)F (stereo not given) strictly below 0.8 µM?
label 0

Is IC50 of CC(C(=O)Nc1cncnc1)c1ccccc1 (stereo not given) strictly below 0.8 µM?
label 0

Is IC50 of CC(C)(C)c1ccc(N(C(=O)c2cc(CO)n[nH]2)C(C(=O)NCCc2cccc(F)c2)c2cccnc2)cc1 (stereo not given) strictly below 0.8 µM?
label 0

Is IC50 of O=C(CCl)NC(CO)c1cccc(Cl)c1 (stereo not given) strictly below 0.8 µM?
label 0

Is IC50 of Cn1ncc(S(=O)(=O)N2Cc3ccc(Cl)cc3C(C(=O)Nc3cncc4ccccc34)C2)n1 (stereo not given) strictly below 0.8 µM?
label 1

Is IC50 of CC(C)S(=O)(=O)c1ccc(N(C(=O)c2cocn2)C(C(=O)NCCc2cccc(F)c2)c2cccnc2)cc1 (stereo not given) strictly below 0.8 µM?
label 0

Is IC50 of O=C(Cc1cc(Cl)cc(N2CCC(O)(c3ccc(Cl)cc3)CC2)c1)Nc1cncc2ccccc12 strictly below 0.8 µM?
label 0

Is IC50 of CNC(=O)CN1CC2(CCN(c3cncc4cc(F)ccc34)C2=O)c2cc(Cl)ccc2C1=O (stereo not given) strictly below 0.8 µM?
label 1

Is IC50 of Cc1nc(-c2cccc(NCc3ccccc3C)c2)n[nH]1 strictly below 0.8 µM?
label 0

Is IC50 of O=C(NCc1ccccn1)[C@@H]1CN(C(=O)CCl)CCN1S(=O)(=O)c1ccsc1 (stereo in doubt) strictly below 0.8 µM?
label 1

Is IC50 of Cc1ccc([N+](=O)[O-])c(Nc2cc(Cl)cc(CC(=O)Nc3cncc4ccccc34)c2)c1 strictly below 0.8 µM?
label 0

Is IC50 of O=C(Cc1cccc(Cl)c1)Nc1cncc2sccc12 strictly below 0.8 µM?
label 1

* * *

Would you kindly list pIC50 for each of these compounds?
// pIC50 is dimensionless: -log10 of concentration (M)

Report pIC50 from SARS-CoV-2 Main Protease (SARS-CoV-2) testing of O=C(Cn1cnc2ccccc21)Nc1cccc(Cl)c1
4.06

Report pIC50 from SARS-CoV-2 Main Protease (SARS-CoV-2) testing of CN(C)CC1(C(=O)Nc2cncc3ccccc23)CCOc2ccc(Cl)cc21 (stereo not given)
4.94

Report pIC50 from SARS-CoV-2 Main Protease (SARS-CoV-2) testing of O=C(c1cc(=O)[nH]c2ccccc12)N1CCN(c2cccc(Cl)c2)C(=O)C1
4.80

Report pIC50 from SARS-CoV-2 Main Protease (SARS-CoV-2) testing of CC(C)NC(=O)CN1CC(C(=O)Nc2cncc3cc(S(C)(=O)=O)ccc23)c2cc(Cl)ccc2C1=O (stereo not given)
6.48

Report pIC50 from SARS-CoV-2 Main Protease (SARS-CoV-2) testing of O=C(Cc1cc(Cl)cc(Nc2ccc(Cl)c(Cl)c2F)c1)Nc1cncc2ccccc12
5.65

Report pIC50 from SARS-CoV-2 Main Protease (SARS-CoV-2) testing of O=C(CCl)N1CCCN(S(=O)(=O)c2ccccc2F)CC1
4.81

Report pIC50 from SARS-CoV-2 Main Protease (SARS-CoV-2) testing of O=C(Nc1ccc(N(Cc2ccsc2)C(=O)Cn2nnc3ccccc32)cc1)C1CC1
5.40

Report pIC50 from SARS-CoV-2 Main Protease (SARS-CoV-2) testing of Cc1cc(Nc2cc(Cl)cc(CC(=O)Nc3cncc4ccccc34)c2)ncc1I
5.63

* * *

measured on: UniProt:P0DTD1
The label is class 1 for IC50 below 2 µM and class 0 for IC50 equal to or exceeding 2 µM.

Is IC50 of CCCCN1C(=O)C(=O)c2cc(Br)cc(C)c21 strictly below 2 µM?
class 0

Is IC50 of COc1ccc2cncc(NC(=O)[C@@]3(OC)CCOc4ccc(Cl)cc43)c2c1 (stereo in doubt) strictly below 2 µM?
class 0

Is IC50 of CS(=O)(=O)c1ccc2c(NC(=O)C3CN(CC(=O)NC4COC4)C(=O)c4ccc(Cl)cc43)cncc2c1 (centres undefined) strictly below 2 µM?
class 1

Is IC50 of Nc1ccc2[nH]c(C(=O)N(C(=O)c3ccco3)C(C(=O)NCCc3cccc(F)c3)c3cccnc3)cc2c1 (centres undefined) strictly below 2 µM?
class 0

Is IC50 of O=C(Cn1nnc2ccccc21)N(CC1CCOC1)c1ccc(C2CCNCC2)cc1 (centres undefined) strictly below 2 µM?
class 0

Is IC50 of Cc1ccncc1N(CC#N)C(=O)Cc1cccc(Cl)c1 strictly below 2 µM?
class 0

Is IC50 of CNC(=O)CN1CC2(CCN(c3cncc4cccc(Cl)c34)C2=O)c2cc(Cl)ccc2C1=O (centres undefined) strictly below 2 µM?
class 1

Is IC50 of O=C(Nc1cncc2cccc(Cl)c12)C12CC(C1)Oc1ccc(Cl)cc12 strictly below 2 µM?
class 0

Is IC50 of Cn1nc(C(=O)N2CCOCC2)cc1C(=O)N(c1ccc(C(C)(C)C)cc1)C(C(=O)NCCc1cccc(F)c1)c1cccnc1 (centres undefined) strictly below 2 µM?
class 0

Is IC50 of CC(=O)N(c1ccc(N)cc1)c1cc(Cl)cc(CC(=O)Nc2cncc3ccccc23)c1 strictly below 2 µM?
class 0

Is IC50 of Cc1cc(Br)cc(C)c1Nc1cc(Cl)cc(CC(=O)Nc2cncc3ccccc23)c1 strictly below 2 µM?
class 1

Is IC50 of O=C1OC2(CCOc3ccc(Cl)cc32)C(=O)N1c1cncc2ccccc12 (centres undefined) strictly below 2 µM?
class 0

Is IC50 of CC(C)(C)c1ccc(N(C(=O)c2cc(=O)[nH][nH]2)C(C(=O)NCCc2cccc(F)c2)c2cccnc2)cc1 (centres undefined) strictly below 2 µM?
class 0

Is IC50 of CC1(C(=O)Nc2cncc3ccccc23)CN(S(=O)(=O)CC2(C#N)CC2)Cc2ccc(Cl)cc21 (centres undefined) strictly below 2 µM?
class 1

Is IC50 of CN(Cc1cccc([N+](=O)[O-])c1)c1cc(Cl)cc(CC(=O)Nc2cncc3ccccc23)c1 strictly below 2 µM?
class 1

Is IC50 of O=C(Nc1ccc(F)cc1)[C@@H](c1ccccc1)N1Cc2ccccc2C1=O (stereo in doubt) strictly below 2 µM?
class 0

Is IC50 of Cc1c(Br)cccc1Nc1cc(Cl)cc(CC(=O)Nc2cncc3ccccc23)c1 strictly below 2 µM?
class 0

Is IC50 of O=C(Cc1cc(Cl)cc(NC2CCN(Cc3ccccc3)CC2)c1)Nc1cncc2ccccc12 strictly below 2 µM?
class 0

Is IC50 of O=C(Cc1cc(Cl)cc(Nc2cncc(Br)c2)c1)Nc1cncc2ccccc12 strictly below 2 µM?
class 0

* * *

Would you kindly list IC50 for each of these molecules?
Just the number in µM, nothing appended.

Report IC50 from SARS-CoV-2 Main Protease (SARS-CoV-2) testing of CC(C)Cn1cc(NC(=O)NCc2ccco2)c2ccccc2c1=O
29.6

Report IC50 from SARS-CoV-2 Main Protease (SARS-CoV-2) testing of Cc1cccc(C)c1NC(=O)[C@@H]1CN(C(=O)CCl)CCN1S(=O)(=O)c1ccsc1 (stereo in doubt)
1.64

Report IC50 from SARS-CoV-2 Main Protease (SARS-CoV-2) testing of O=C(Cc1cc(Cl)cc(Nc2cc(Cl)c(F)c(Cl)c2)c1)Nc1cncc2ccccc12
1.85

Report IC50 from SARS-CoV-2 Main Protease (SARS-CoV-2) testing of O=C(NCCc1cccc(F)c1)C(c1cccnc1)N(C(=O)c1cocn1)c1ccc(N2CCCS2(=O)=O)cc1 (centres undefined)
27.8

Report IC50 from SARS-CoV-2 Main Protease (SARS-CoV-2) testing of CC(C)(C)OC(=O)NCCNC(=O)C(c1cccnc1)N(C(=O)c1cocn1)c1ccc(C(C)(C)C)cc1 (centres undefined)
6.26

Report IC50 from SARS-CoV-2 Main Protease (SARS-CoV-2) testing of N#Cc1cc(Cl)c(Nc2cc(Cl)cc(CC(=O)Nc3cncc4ccccc34)c2)c(Cl)c1
1.79

Report IC50 from SARS-CoV-2 Main Protease (SARS-CoV-2) testing of O=C(Nc1cncc2ccccc12)C1CN(S(=O)(=O)C2CC2)Cc2ccc(Cl)cc21 (centres undefined)
0.31

Report IC50 from SARS-CoV-2 Main Protease (SARS-CoV-2) testing of CN(C)CCCOc1ccc2cncc(N3CCC4(CN(S(=O)(=O)CC5(C#N)CC5)Cc5ccc(Cl)cc54)C3=O)c2c1 (centres undefined)
0.149

Report IC50 from SARS-CoV-2 Main Protease (SARS-CoV-2) testing of CCOc1ccc(CNc2cc(Cl)cc(CC(=O)Nc3cncc4ccccc34)c2)cc1
3.41

Report IC50 from SARS-CoV-2 Main Protease (SARS-CoV-2) testing of CN(C)C(=O)CNC(=O)C(c1cccnc1)N(C(=O)c1ccco1)c1ccc(C(C)(C)C)cc1 (centres undefined)
10.9

Report IC50 from SARS-CoV-2 Main Protease (SARS-CoV-2) testing of O=C1N(Cc2cccc(Cl)c2)CCN1c1nccc2n[nH]cc12
4.56
